Values from ChEMBL document CHEMBL1201862

# Test system: NCI-H226
# experiment_description: NCI tumour cell line growth inhibition, 48 h
Activity calls are given as the source filed them. Rule as the data show it: active = GI50 up to about 1.1 µM and inactive = higher.

{"compound": "CC1(C)[N+]([O-])=[N+]([O-])C1(Br)c1ccccc1 (stereo unspecified)", "GI50": "> 100 µM (inactive)"}
{"compound": "O=C1O/C(=C(\\Br)c2ccc([N+](=O)[O-])cc2)c2ccccc21", "GI50": "> 100 µM (inactive)"}
{"compound": "CC1CCCC(C(=O)/C(=C/c2cccc(Cl)c2)C(=O)C(=O)O)C1 (stereo unspecified)", "GI50": "> 100 µM (inactive)"}
{"compound": "CSc1ccc(C(=O)C(=O)c2ccc(SC)s2)s1", "GI50": "> 10 µM (inactive)"}
{"compound": "CC1C2CC(CC2=O)C1(C)C (stereo unspecified)", "GI50": "> 100 µM (inactive)"}
{"compound": "CCOC(=O)C(OP(=O)(OCC)OCC)C(F)(F)F (stereo unspecified)", "GI50": "> 100 µM (inactive)"}
{"compound": "FC(F)(F)c1cccnc1Sc1nc2ccccc2s1", "GI50": "2.67 µM (inactive)"}
{"compound": "Cc1cc(C)nc(NS(=O)(=O)c2ccc(NC(=O)c3cc([N+](=O)[O-])cc([N+](=O)[O-])c3)cc2)n1", "GI50": "> 100 µM (inactive)"}
{"compound": "O=C1C2=Cc3ccccc3CCN2c2ccccc21", "GI50": "13.9 µM (inactive)"}
{"compound": "Cc1ncc([N+](=O)[O-])n1CCNC(=O)CCC(=O)NCCCn1ccnc1[N+](=O)[O-]", "GI50": "> 100 µM (inactive)"}
{"compound": "CCCCCCCCCCCCc1ccsc1-c1ccc(-c2ccc(-c3sccc3CCCCCCCCCCCC)s2)s1", "GI50": "> 100 µM (inactive)"}
